# assay_system: Hypoxia-inducible factor 1-alpha (Homo sapiens)
# experiment_notes: activators of HIF1alpha nuclear accumulation, confirmation, imaging, fluorescence, U2OS GFP-HIF1alpha (AID 434951)
# condition_description: U2OS GFP-HIF1alpha nuclear intensity, high-content imaging
The source made the active and inactive calls.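 How the source made its calls: active means a fitted half-maximal concentration EC50 for the rise in nuclear signal no higher than ten times the top dose tested; inconclusive means flat fit with activity between 30% and 70%, or unusable fit; inactive means EC50 beyond ten times the top dose.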
Respond only with the outcome that fits, drawn from True for active, False for inactive

| molecule | class_assignment |
| --- | --- |
| Cc1ccc2nc(SCC(=O)N3CCCCCC3)nc(=O)n2c1 | False |
| COc1ccccc1-c1cc(C(F)(F)F)nc(S(=O)(=O)CCCC(=O)NC(C)C)n1 | False |
| C=CCN(c1ccccc1)S(=O)(=O)c1cccc(C(=O)Nc2ncccc2O)c1 | False |
| CCCCCCCC1CC(=O)C=C(C)C1C(=O)OCC (stereo unspecified) | False |
| Cc1ccc(C2(C)NC(=O)N(CC(=O)Nc3ccccc3N3CCCC3)C2=O)cc1 (stereo unspecified) | False |
| Cc1ccc(-c2cc(C(=O)N3CCCCCC3)no2)cc1 | False |
| COc1ccc(CN(C)CC(=O)Nc2ccc(SC(F)F)cc2)cc1OC | False |
| CCCNC(=O)c1cc(-c2ccco2)on1 | True |
| Cc1ccc(C2=NS(=O)(=O)N(C)C(C(=O)NC3CCCC3)=C2)cc1 | False |
| O=C1C=C(c2ccccc2)CC(c2cccs2)C1n1cnc([N+](=O)[O-])c1 (stereo unspecified) | False |

Per the assay record, what outcome was assigned to Oc1ccc(CCNc2c3ccccc3nc3ccccc23)cc1O ?
False

Next entry: COc1ccc(/C=C/C(=O)NCCSCc2ccco2)cc1OC
False

Do the same for Oc1ccc2ccccc2c1/C=N/Nc1nnc(-c2ncc[nH]2)c2ccccc12 please
True

Could you do the same for CS(=O)(=O)c1cccc(C(=O)N(CCc2ccccc2)Cc2cccs2)c1 , please?
False

What do we get for COc1ccc(C(CC(=O)Nc2ccccc2OC)n2cccc2)cc1 (stereo unspecified) ?
False

Further, for Cc1ccccc1NC(=O)c1ccccc1O ?
False

###

# assay_system: Hypoxia-inducible factor 1-alpha (Homo sapiens)
# experiment_notes: activators of HIF1alpha nuclear accumulation, confirmation, imaging, fluorescence, U2OS GFP-HIF1alpha (AID 434951)
# condition_description: U2OS GFP-HIF1alpha nuclear intensity, high-content imaging
Active and inactive are the calls of the source.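 The calls were made as follows: active = a fitted half-maximal concentration EC50 for the rise in nuclear signal no higher than ten times the top dose tested; inconclusive = flat fit with activity between 30% and 70%, or unusable fit; inactive = EC50 beyond ten times the top dose.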
Listed here: items and their measured EC50.

| compound | assay_system | EC50 |
| --- | --- | --- |
| CCOc1ccccc1CN1CCN(S(C)(=O)=O)CC1 | Hypoxia-inducible factor 1-alpha (Homo sapiens) | > 35 µM (inactive) |

Recorded EC50 of CC(C)c1ccc(N(C(=O)c2snc(C(N)=O)c2N)C(C(=O)NC2CCCC2)c2ccncc2)cc1 (centres undefined) , please.
21.4 µM

Subsequent entry: CNc1nc(-c2ccccn2)nnc1-c1ccccc1
7.4 µM

###

# assay_system: Hypoxia-inducible factor 1-alpha (Homo sapiens) (UniProt Q16665)
# Sequence (Q16665 whole entry, looked up): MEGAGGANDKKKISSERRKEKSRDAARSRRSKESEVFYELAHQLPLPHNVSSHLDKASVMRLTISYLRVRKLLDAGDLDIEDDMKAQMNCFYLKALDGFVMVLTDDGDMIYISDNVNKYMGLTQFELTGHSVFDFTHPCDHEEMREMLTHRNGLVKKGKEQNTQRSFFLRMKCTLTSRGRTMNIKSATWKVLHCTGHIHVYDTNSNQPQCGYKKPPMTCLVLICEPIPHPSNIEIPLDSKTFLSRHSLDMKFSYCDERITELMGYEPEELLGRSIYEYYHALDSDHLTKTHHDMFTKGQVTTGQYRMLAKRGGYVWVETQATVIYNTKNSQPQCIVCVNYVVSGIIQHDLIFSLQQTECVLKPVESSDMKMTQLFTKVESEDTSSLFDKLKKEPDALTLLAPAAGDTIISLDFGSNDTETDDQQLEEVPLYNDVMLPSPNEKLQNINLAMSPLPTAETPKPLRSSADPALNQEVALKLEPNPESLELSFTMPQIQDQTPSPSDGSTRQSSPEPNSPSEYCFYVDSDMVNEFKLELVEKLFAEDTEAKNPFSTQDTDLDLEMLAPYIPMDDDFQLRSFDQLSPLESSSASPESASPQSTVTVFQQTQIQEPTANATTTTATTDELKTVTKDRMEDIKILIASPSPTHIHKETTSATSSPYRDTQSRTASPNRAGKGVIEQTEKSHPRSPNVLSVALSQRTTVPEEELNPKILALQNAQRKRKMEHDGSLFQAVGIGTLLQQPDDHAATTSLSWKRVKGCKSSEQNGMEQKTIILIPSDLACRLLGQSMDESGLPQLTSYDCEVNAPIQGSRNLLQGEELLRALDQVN
# experiment_notes: activators of HIF1alpha nuclear accumulation, confirmation, imaging, fluorescence, U2OS GFP-HIF1alpha (AID 434951)
# condition_description: U2OS GFP-HIF1alpha nuclear intensity, high-content imaging
Active and inactive are the calls of the source.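 The calls were made as follows: active = a fitted half-maximal concentration EC50 for the rise in nuclear signal no higher than ten times the top dose tested; inconclusive = flat fit with activity between 30% and 70%, or unusable fit; inactive = EC50 beyond ten times the top dose.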
Your answer must be one of the following: 1 (yes) = active, 0 (no) = inactive

| compound | class_assignment |
| --- | --- |
| CC(=O)Nc1ccc2nc(NC(=O)COc3ccccc3C)sc2c1 | 0 (no) |
| CCOc1cc(/C=N/NC(=O)c2cccnc2)ccc1OCc1ccc(C(=O)OC)o1 | 0 (no) |
| CCN(CC)CCn1nc2c3c(cccc3c1=O)-c1ccccc1-2 | 0 (no) |

Now consider the entry below.
Please share the test call associated with Oc1c(C(Nc2ccccn2)c2ccccn2)ccc2cccnc12 (centres undefined) .
1 (yes)

Data origin: PubChem BioAssay AID434951
